measured on: SERT (Homo sapiens (Human))
experimental protocol: SERT Inhibition Assay (Neurotransmitter Transporter Fluorescence assay, stable 5HTT cells)
pIC50: −log10 of the molar value.
measured quantity: pIC50

query_smiles=COc1ccc([C@@]23CCC(OP4(=O)OCC(C)(C)CO4)=C[C@@H]2N(C)CC3)cc1OC measured_quantity=pIC50 number=7.20

###

experimental protocol: Plasma Stability Assay (Example A3), human plasma
Assay type: in vitro ADME
setup conditions: prodrug remaining, 10 μM, 37° C., 240 min
Classify: Fulfilled when Human Plasma Prodrug (%) is strictly less than 20%; Not fulfilled when Human Plasma Prodrug (%) is not.

compound=COc1ccc([C@@]23CCC(OP(=O)(O)OCOC(=O)OC(C)C)=C[C@@H]2N(C)CC3)cc1OC category="Not fulfilled"
compound=COc1ccc([C@@]23CCC(OP(=O)(O)OCOC(=O)C(C)C)=C[C@@H]2N(C)CC3)cc1OC category="Not fulfilled"
compound=COc1ccc([C@@]23CCC(OP(=O)(O)OCOC(=O)C(C)(C)C)=C[C@@H]2N(C)CC3)cc1OC category="Not fulfilled"
compound=COc1ccc([C@@]23CCC(OP(=O)(OC(C)C)OC(C)C)=C[C@@H]2N(C)CC3)cc1OC category="Not fulfilled"
compound=COc1ccc([C@@]23CCC(OP4(=O)OCC(C)(C)CO4)=C[C@@H]2N(C)CC3)cc1OC category=Fulfilled
compound="COc1ccc([C@@]23CCC(OP4(=O)OC(C)CC(C)O4)=C[C@@H]2N(C)CC3)cc1OC (stereo partly shown)" category="Not fulfilled"

###

experimental protocol: in vivo
Assay type: in vivo, mouse
setup conditions: male, C57BL/6, mouse, in vivo, iv, 2 mg/kg, 323 in brain after 323 IV 2 mg/kg; flagged NR (not reportable, very high vs liver blood flow)
measured quantity: clearance (L/h/kg)

query_smiles=COc1ccc([C@@]23CCC(OP4(=O)OCC(C)(C)CO4)=C[C@@H]2N(C)CC3)cc1OC unit_abbreviation=L/h/kg number=261

###

Type: in vitro ADME, mouse
setup conditions: prodrug remaining, 5 μM, 37° C., 120 min
Measured Mouse Plasma Prodrug (%), listed per entry for reference.
measured quantity: Mouse Plasma Prodrug (%)

compound="COc1ccc([C@@]23CCC(OC(=O)N(C)C)=C[C@@H]2N(C)CC3)cc1OC [Compound 324]" unit_abbreviation=% qualifier_sign== number=92.6
compound="COc1ccc([C@@]23CCC(OP4(=O)OCC(C)(C)CO4)=C[C@@H]2N(C)CC3)cc1OC [Compound 323]" unit_abbreviation=% qualifier_sign== number=71.9
compound="COc1ccc([C@@]23CCC(OP(=O)(Oc4ccccc4)Oc4ccccc4)=C[C@@H]2N(C)CC3)cc1OC [Compound 320]" unit_abbreviation=% qualifier_sign== number=19.4
compound="COc1ccc([C@@]23CCC(OC(=O)N4CCN(C)CC4)=C[C@@H]2N(C)CC3)cc1OC [Compound 327]" unit_abbreviation=% qualifier_sign=> number=99
compound="CCN(C)C(=O)OC1=C[C@@H]2N(C)CC[C@]2(c2ccc(OC)c(OC)c2)CC1 [Compound 326]" unit_abbreviation=% qualifier_sign=> number=99
compound="COc1ccc([C@@]23CCC(OP(=O)(OC(C)C)OC(C)C)=C[C@@H]2N(C)CC3)cc1OC [Compound 321]" unit_abbreviation=% qualifier_sign== number=43.1
compound="COc1ccc([C@@]23CCC(OP(=O)(O)O)=C[C@@H]2N(C)CC3)cc1OC [Compound 359]" unit_abbreviation=% qualifier_sign== number=50.7
compound="COc1ccc([C@@]23CCC(OC(=O)OC(C)(C)C)=C[C@@H]2N(C)CC3)cc1OC [Compound 358]" unit_abbreviation=% qualifier_sign== number=0.0

###

experimental protocol: Plasma Stability Assay (Example A3), rat plasma
Format: in vitro ADME
setup conditions: prodrug remaining, 10 μM, 37° C., 120 min
Classify: YES when Rat Plasma Prodrug (%) is strictly less than 60%; NO when Rat Plasma Prodrug (%) is not.

compound=COc1ccc([C@@]23CCC(OP(=O)(O)OCOC(=O)C(C)C)=C[C@@H]2N(C)CC3)cc1OC category=YES
compound=COc1ccc([C@@]23CCC(OP4(=O)OCCCO4)=C[C@@H]2N(C)CC3)cc1OC category=NO
compound=COc1ccc([C@@]23CCC(OP(=O)(O)OCOC(=O)C(C)(C)C)=C[C@@H]2N(C)CC3)cc1OC category=YES
compound=COc1ccc([C@@]23CCC(OP(=O)(OC(C)C)OC(C)C)=C[C@@H]2N(C)CC3)cc1OC category=NO
compound="COc1ccc([C@@]23CCC(OP4(=O)OC(C)CC(C)O4)=C[C@@H]2N(C)CC3)cc1OC (stereo partly shown)" category=NO
compound=COc1ccc([C@@]23CCC(OP(=O)(O)OCOC(=O)OC(C)C)=C[C@@H]2N(C)CC3)cc1OC category=YES

###

experimental protocol: Plasma Stability Assay (Example A3), human plasma
Assay type: in vitro ADME
setup conditions: prodrug remaining, 10 μM, 37° C., 60 min
Classify: 1 (yes) when Human Plasma Prodrug (%) is strictly less than 90%; 0 (no) when Human Plasma Prodrug (%) is not.

compound=COc1ccc([C@@]23CCC(OP(=O)(OC(C)C)OC(C)C)=C[C@@H]2N(C)CC3)cc1OC category="0 (no)"
compound=COc1ccc([C@@]23CCC(OP(=O)(O)OCOC(=O)C(C)(C)C)=C[C@@H]2N(C)CC3)cc1OC category="0 (no)"
compound=COc1ccc([C@@]23CCC(OP4(=O)OCC(C)(C)CO4)=C[C@@H]2N(C)CC3)cc1OC category="1 (yes)"
compound=COc1ccc([C@@]23CCC(OP(=O)(O)OCOC(=O)C(C)C)=C[C@@H]2N(C)CC3)cc1OC category="1 (yes)"
compound=COc1ccc([C@@]23CCC(OP(=O)(O)OCOC(=O)OC(C)C)=C[C@@H]2N(C)CC3)cc1OC category="0 (no)"
compound="COc1ccc([C@@]23CCC(OP4(=O)OC(C)CC(C)O4)=C[C@@H]2N(C)CC3)cc1OC (stereo partly shown)" category="0 (no)"
compound=COc1ccc([C@@]23CCC(OP4(=O)OCCCO4)=C[C@@H]2N(C)CC3)cc1OC category="1 (yes)"

###

experimental protocol: Pharmacokinetics of 358, single IV in male C57BL/6 mice
Assay type: in vivo, mouse
setup conditions: male, C57BL/6, mouse, brain; 358 after 358 IV 2 mg/kg, 0.08 h; read-out: Brain concentrations (mean)
measured quantity: concentration at 0.08 h (ng/g)

molecule="COc1ccc([C@@]23CCC(OC(=O)OC(C)(C)C)=C[C@@H]2N(C)CC3)cc1OC [Compound 358]" number=18.3

###

experimental protocol: in vivo
Type: in vivo, mouse
setup conditions: male, C57BL/6, mouse, in vivo; 321 in plasma after 321 IV 2 mg/kg
measured quantity: AUC(0-t) (ng·h/mL)

query_smiles=COc1ccc([C@@]23CCC(OP(=O)(OC(C)C)OC(C)C)=C[C@@H]2N(C)CC3)cc1OC unit_abbreviation=ng·h/mL number=97.1

###

experimental protocol: in vivo
Type: in vivo, mouse
setup conditions: male, C57BL/6, mouse, in vivo, iv, 2 mg/kg, 323 in plasma after 323 IV 2 mg/kg
measured quantity: half-life (min)

query_smiles=COc1ccc([C@@]23CCC(OP4(=O)OCC(C)(C)CO4)=C[C@@H]2N(C)CC3)cc1OC unit_abbreviation=min number=10.2

###

experimental protocol: Plasma Stability Assay (Example A3), rat plasma
Format: in vitro ADME
setup conditions: prodrug remaining, 10 μM, 37° C., 60 min
Classify: criterion met when Rat Plasma Prodrug (%) is strictly less than 80%; criterion not met when Rat Plasma Prodrug (%) is not.

compound=COc1ccc([C@@]23CCC(OP(=O)(OC(C)C)OC(C)C)=C[C@@H]2N(C)CC3)cc1OC category="criterion met"
compound=COc1ccc([C@@]23CCC(OP(=O)(O)OCOC(=O)C(C)(C)C)=C[C@@H]2N(C)CC3)cc1OC category="criterion met"
compound=COc1ccc([C@@]23CCC(OP4(=O)OCCCO4)=C[C@@H]2N(C)CC3)cc1OC category="criterion not met"
compound=COc1ccc([C@@]23CCC(OP(=O)(O)OCOC(=O)C(C)C)=C[C@@H]2N(C)CC3)cc1OC category="criterion met"
compound=COc1ccc([C@@]23CCC(OP(=O)(O)OCOC(=O)OC(C)C)=C[C@@H]2N(C)CC3)cc1OC category="criterion met"
compound="COc1ccc([C@@]23CCC(OP4(=O)OC(C)CC(C)O4)=C[C@@H]2N(C)CC3)cc1OC (stereo partly shown)" category="criterion not met"

###

experimental protocol: Hydrolysis Assay - Condition 2 (DI Water)
Type: physicochemical
setup conditions: 25° C., 0.5 mM, 4 h
measured quantity: Condition 2 Conversion (%)

query_smiles=CCN(C)C(=O)OC1=C[C@@H]2N(C)CC[C@]2(c2ccc(OC)c(OC)c2)CC1 unit_abbreviation=% number=0
query_smiles=COc1ccc([C@@]23CCC(OP4(=O)OCC(C)(C)CO4)=C[C@@H]2N(C)CC3)cc1OC unit_abbreviation=% number=0
query_smiles=COc1ccc([C@@]23CCC(OC(=O)N(C)C)=C[C@@H]2N(C)CC3)cc1OC unit_abbreviation=% number=0
query_smiles=COc1ccc([C@@]23CCC(OC(=O)N4CCN(C)CC4)=C[C@@H]2N(C)CC3)cc1OC unit_abbreviation=% number=0
query_smiles=COc1ccc([C@@]23CCC(OC(=O)OC(C)(C)C)=C[C@@H]2N(C)CC3)cc1OC unit_abbreviation=% number=83.46
